This listing pairs binders with measured IC50 Fold Loss.
Biological target: T1, recombinant human M-CSF (human, UniProt P09603 33-190, limits assumed)
T1 sequence: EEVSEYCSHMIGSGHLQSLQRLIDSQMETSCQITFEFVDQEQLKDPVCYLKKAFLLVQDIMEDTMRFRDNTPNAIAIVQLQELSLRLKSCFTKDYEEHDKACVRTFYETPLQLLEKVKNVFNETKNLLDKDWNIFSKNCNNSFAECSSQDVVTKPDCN
Experiment: cell-based or functional assay

{"BINDER": "heRX1-7.G2 (antibody, V domains shown, copies: 2 + 2) VH: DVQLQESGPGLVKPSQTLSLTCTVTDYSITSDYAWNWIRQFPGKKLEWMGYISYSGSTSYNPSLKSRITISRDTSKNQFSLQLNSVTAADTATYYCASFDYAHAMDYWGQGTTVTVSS VL: EIVLTQSPGTLSVSPGERVTFSCRASQSIGTSIHWYQQKTGQAPRLLIKYASESISGIPDRFSGSGSGTDFTLTISRVESEDFADYYCQQINSWPTTFGQGTKLEIK", "IC50 Fold Loss": "6.1 fold"}
{"BINDER": "heRX1-3.G2 (antibody, V domains shown, not shown: human Gamma-2 heavy chain constant region; human Kappa light chain constant region (the printed V regions end in EIKRT, which may overlap its start)) VH: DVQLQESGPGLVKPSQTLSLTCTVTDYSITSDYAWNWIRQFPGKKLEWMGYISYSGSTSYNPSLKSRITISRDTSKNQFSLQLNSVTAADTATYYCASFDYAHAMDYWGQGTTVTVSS VL: EIVLTQSPGTLSVSPGERVTFSCRASQSIGTSIHWYQQKTGQAPRLLIKYASERATGIPDRFSGSGSGTDFTLTISRVESEDFADYYCQQINSWPTTFGQGTKLEIKR", "IC50 Fold Loss": "5.3 fold"}
{"BINDER": "heRX1-10.G2 (antibody, V domains shown, not shown: human Gamma-2 heavy chain constant region; human Kappa light chain constant region (the V region entry may overlap its start)) VH: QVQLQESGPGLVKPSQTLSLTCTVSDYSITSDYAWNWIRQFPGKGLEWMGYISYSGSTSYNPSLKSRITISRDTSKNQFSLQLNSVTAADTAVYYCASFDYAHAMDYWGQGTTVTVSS VL: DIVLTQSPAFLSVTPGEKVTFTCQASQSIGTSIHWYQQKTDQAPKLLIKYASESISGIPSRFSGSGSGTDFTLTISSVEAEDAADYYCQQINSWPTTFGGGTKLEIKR", "IC50 Fold Loss": "2.2 fold"}
